Collected IC50 values appear next to each entry.
Target: T1, human tissue factor (human, UniProt P13726 33-251, limits assumed)
T1 construct: construct not described; also called TF
Test: phage ELISA, solution competition: Fab-phage incubated with serially diluted TF, unbound phage captured on TF-coated wells; IC50 used as affinity estimate
readout kind: IC50 (nM)

binder	measured value
D3 library clone, CDR-L2 RGTSLFE, VL K24E, D28V, Y32F (Fab, V domains shown, Changes against the D3 direct graft (Kabat): VL K24E, D28V, Y32F, Y50R, A51G, A55F, D56E; copies: 1 + 1) VH: EVQLVESGGGLVQPGGSLRLSCAASGFNIKDYYMHWVRQAPGKGLEWVGWIDPENGNTIYDPKFQDRFTISADTSKNTAYLQMNSLRAEDTAVYYCARDTAAYFDYWGQGTLVTVSS VL: DIQMTQSPSSLSASVGDRVTITCEASRVIKSFLSWYQQKPGKAPKLLIYRGTSLFEGVPSRFSGSGSGTDFTLTISSLQPEDFATYYCLQHGESPFTFGQGTKVEIK	10
D3 library clone, CDR-L2 YTTGPVD (Fab, V domains shown, Changes against the D3 direct graft (Kabat): VL A51T, S53G, L54P, A55V; copies: 1 + 1) VH: EVQLVESGGGLVQPGGSLRLSCAASGFNIKDYYMHWVRQAPGKGLEWVGWIDPENGNTIYDPKFQDRFTISADTSKNTAYLQMNSLRAEDTAVYYCARDTAAYFDYWGQGTLVTVSS VL: DIQMTQSPSSLSASVGDRVTITCKASRDIKSYLSWYQQKPGKAPKLLIYYTTGPVDGVPSRFSGSGSGTDFTLTISSLQPEDFATYYCLQHGESPFTFGQGTKVEIK	21
D3 library clone, CDR-L2 YEGSGKR (Fab, V domains shown, Changes against the D3 direct graft (Kabat): VL A51E, T52G, L54G, A55K, D56R; Siblings 8; copies: 1 + 1) VH: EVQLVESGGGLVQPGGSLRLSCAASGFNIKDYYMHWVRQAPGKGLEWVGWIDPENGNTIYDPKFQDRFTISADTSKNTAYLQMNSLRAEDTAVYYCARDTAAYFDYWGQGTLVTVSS VL: DIQMTQSPSSLSASVGDRVTITCKASRDIKSYLSWYQQKPGKAPKLLIYYEGSGKRGVPSRFSGSGSGTDFTLTISSLQPEDFATYYCLQHGESPFTFGQGTKVEIK	12
